Below, each of the compounds is paired with its reported pIC50 value.
Test target: human recombinant ENPP1 (Homo sapiens, UniProt P22413)
Sequence (P22413 whole entry): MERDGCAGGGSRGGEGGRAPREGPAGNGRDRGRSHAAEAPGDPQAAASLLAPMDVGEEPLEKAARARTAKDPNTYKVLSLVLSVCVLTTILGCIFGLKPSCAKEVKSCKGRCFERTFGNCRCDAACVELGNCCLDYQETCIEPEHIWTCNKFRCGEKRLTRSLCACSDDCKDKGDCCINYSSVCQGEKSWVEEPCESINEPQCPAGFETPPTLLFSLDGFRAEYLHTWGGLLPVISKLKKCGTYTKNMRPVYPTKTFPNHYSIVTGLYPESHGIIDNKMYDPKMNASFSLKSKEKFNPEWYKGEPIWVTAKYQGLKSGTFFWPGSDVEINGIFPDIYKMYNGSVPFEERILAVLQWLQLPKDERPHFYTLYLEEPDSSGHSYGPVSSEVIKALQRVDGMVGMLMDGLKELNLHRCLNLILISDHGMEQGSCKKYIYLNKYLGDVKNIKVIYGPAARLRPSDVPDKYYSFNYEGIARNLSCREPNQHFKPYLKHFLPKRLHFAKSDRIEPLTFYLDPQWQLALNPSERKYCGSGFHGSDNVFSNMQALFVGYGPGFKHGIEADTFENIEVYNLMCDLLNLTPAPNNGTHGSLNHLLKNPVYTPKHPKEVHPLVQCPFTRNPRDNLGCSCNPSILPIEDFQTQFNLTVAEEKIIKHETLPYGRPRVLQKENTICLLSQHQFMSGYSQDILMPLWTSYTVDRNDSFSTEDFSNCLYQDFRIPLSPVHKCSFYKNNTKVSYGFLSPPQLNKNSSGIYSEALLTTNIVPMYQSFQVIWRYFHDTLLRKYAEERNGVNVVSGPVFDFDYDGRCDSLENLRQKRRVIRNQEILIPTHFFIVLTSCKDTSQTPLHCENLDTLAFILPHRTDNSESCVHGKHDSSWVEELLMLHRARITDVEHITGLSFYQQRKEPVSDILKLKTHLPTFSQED
Procedure text: ENPP1 enzyme assay with cGAMP substrate (AMP-Glo luminescence)
Experimental context: human recombinant ENPP1 3 ng/reaction, cGAMP 5 μM, 37° C. 90 minutes, read-out: Enzymatic activity (ENPP1 IC50)
pIC50: −log10 of the molar value. Counter-ions that a name gives are not always drawn.
Measured property: pIC50

>>> df
                                   compound                               test_target        result
0  COc1ccc2c(-c3ccc(CNS(N)(=O)=O)cc3)n[nH]c(=O)c2c1 [Compound No. 106, hydrochloride]  human recombinant ENPP1 (Homo sapiens, UniProt P22413)  5.00 to 6.00
1  Cn1nc(-c2ccc3c(c2)CCNC3)c2ccccc2c1=O [Compound No. 56, hydrochloride]  human recombinant ENPP1 (Homo sapiens, UniProt P22413)  5.00 to 6.00
2  COc1cc2c(Cc3cccc(NS(N)(=O)=O)c3)n[nH]c(=O)c2cc1OC [Example 178, hydrochloride]  human recombinant ENPP1 (Homo sapiens, UniProt P22413)        < 5.00
3  COc1cc2c(-c3ccc4c(c3)CCNC4)nn(C)c(=O)c2cc1OC [Compound No. 58, hydrochloride]  human recombinant ENPP1 (Homo sapiens, UniProt P22413)  5.00 to 6.00
4  COc1cc2c(-c3ccc(CNS(N)(=O)=O)c(F)c3F)n[nH]c(=O)c2cc1OC [Compound No. 115, hydrochloride]  human recombinant ENPP1 (Homo sapiens, UniProt P22413)  5.00 to 6.00
5  CC(C)(C)OC(=O)NS(=O)(=O)NCc1ccc(-c2nn(-c3ccccc3)c(=O)c3ccccc23)cc1 [Compound No. 69]  human recombinant ENPP1 (Homo sapiens, UniProt P22413)        < 5.00
6  COc1cc2c(Cc3ccc4c(c3)CCN4S(N)(=O)=O)n[nH]c(=O)c2cc1OC [Example 187, hydrochloride]  human recombinant ENPP1 (Homo sapiens, UniProt P22413)        > 6.00

###

Test target: human recombinant ENPP1 (Homo sapiens, UniProt P22413)
Procedure text: ENPP1 enzyme assay with cGAMP substrate (AMP-Glo luminescence)
Experimental context: human recombinant ENPP1 3 ng/reaction, cGAMP 5 μM, 37° C. 90 minutes, read-out: Enzymatic activity (ENPP1 IC50)
Counter-ions that a name gives are not always drawn.
Recorded IC50 for the following compounds
Measured property: IC50

>>> print(df.to_string())
                                   compound                               test_target      result
0  CS(=O)(=O)NCc1ccc(-c2n[nH]c(=O)c3ccccc23)cc1  human recombinant ENPP1 (Homo sapiens, UniProt P22413)     > 10 µM
1  CCn1nc(-c2ccc(CNS(=O)(=O)NC(=O)OC(C)(C)C)cc2)c2ccccc2c1=O  human recombinant ENPP1 (Homo sapiens, UniProt P22413)     > 10 µM
2  Cn1nc(-c2ccc3c(c2)CCN(S(N)(=O)=O)C3)c2ccccc2c1=O [Compound No. 129, hydrochloride]  human recombinant ENPP1 (Homo sapiens, UniProt P22413)  1 to 10 µM
3  COc1cc2c(-c3ccc4c(c3)CCN(S(N)(=O)=O)C4)nn(C)c(=O)c2cc1OC [Compound No. 131, hydrochloride]  human recombinant ENPP1 (Homo sapiens, UniProt P22413)  1 to 10 µM
4  Cn1nc(-c2ccc3c(c2)CCN(C(=O)OC(C)(C)C)C3)c2ccccc2c1=O  human recombinant ENPP1 (Homo sapiens, UniProt P22413)     > 10 µM
5  COc1cc2c(Cc3cccc(NS(=O)(=O)NC(=O)OC(C)(C)C)c3)n[nH]c(=O)c2cc1OC  human recombinant ENPP1 (Homo sapiens, UniProt P22413)     > 10 µM
6  NCc1cccc(-c2nn(Cc3ccccc3)c(=O)c3ccccc23)c1 [Compound No. 35, hydrochloride]  human recombinant ENPP1 (Homo sapiens, UniProt P22413)     > 10 µM

This collection of values is drawn from patent US20230159469A1.
